subject_of_test: UniProtKB P00915
Sequence (P00915 whole entry): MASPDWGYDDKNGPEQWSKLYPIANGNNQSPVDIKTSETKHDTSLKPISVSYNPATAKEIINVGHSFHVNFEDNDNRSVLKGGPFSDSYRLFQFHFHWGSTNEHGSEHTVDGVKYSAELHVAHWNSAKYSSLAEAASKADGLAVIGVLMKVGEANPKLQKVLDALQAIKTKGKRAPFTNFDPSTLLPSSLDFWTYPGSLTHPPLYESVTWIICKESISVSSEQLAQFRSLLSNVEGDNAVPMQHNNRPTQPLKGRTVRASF
pKi: −log10 of the molar value.
Reported pKi maps to class as: bucket A = under 5, bucket B = from 5 up to 6, bucket C = 6 and over

// bin(item) where item = NS(=O)(=O)c1cc(S(N)(=O)=O)c(NC(=O)CN(CCN(CC(=O)O)CC(=O)Nc2c(S(N)(=O)=O)cc(S(N)(=O)=O)c(Cl)c2Cl)CC(=O)O)c(Cl)c1Cl
bucket C

Tag the class for NS(=O)(=O)c1ccc(NC(=O)CNCCNCC(=O)O)c(Br)c1
bucket C

Could you place NS(=O)(=O)c1ccc(CCNC(=O)CNCC(=O)O)cc1 in its proper category? Many thanks.
bucket B

Field: class (pKi) — entry: NS(=O)(=O)c1ccc(NNC(=O)CN(CC(=O)O)CC(=O)O)cc1
bucket A

New cases:
In plain terms, what class is NS(=O)(=O)c1ccc(CCNC(=O)CN(CCN(CC(=O)O)CC(=O)O)CC(=O)O)cc1 ?
bucket C
